Where do the numbers come from? From PubChem BioAssay (EPA / NIEHS).

Target: human Retinoid X Receptor beta (RXRb), RXRB (gene 6257) (UniProt P28702)
Sequence (P28702 whole entry, looked up): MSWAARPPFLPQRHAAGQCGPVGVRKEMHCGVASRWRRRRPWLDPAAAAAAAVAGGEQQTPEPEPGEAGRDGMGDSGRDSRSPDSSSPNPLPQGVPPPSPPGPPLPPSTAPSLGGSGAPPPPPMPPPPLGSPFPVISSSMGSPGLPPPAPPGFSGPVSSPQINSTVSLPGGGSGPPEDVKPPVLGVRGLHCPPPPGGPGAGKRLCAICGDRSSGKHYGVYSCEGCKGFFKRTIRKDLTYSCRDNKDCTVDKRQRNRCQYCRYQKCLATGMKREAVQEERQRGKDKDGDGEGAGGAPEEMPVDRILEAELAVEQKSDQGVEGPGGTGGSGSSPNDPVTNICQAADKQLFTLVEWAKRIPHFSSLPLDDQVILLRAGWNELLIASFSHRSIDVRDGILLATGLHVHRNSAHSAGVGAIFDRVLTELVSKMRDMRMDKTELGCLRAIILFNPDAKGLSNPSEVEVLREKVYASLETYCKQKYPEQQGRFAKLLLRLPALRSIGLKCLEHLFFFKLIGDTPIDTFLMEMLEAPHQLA
Assay: ATG_RXRb_TRANS: Attagene TRANS-FACTORIAL HepG2 Assay for human Retinoid X Receptor beta (RXRb) (AID 2283013)
Records with an inconclusive call do not appear. Activity calls are given as the source filed them. How the source made its calls: active means hit-call score of the fitted dose curve at least 0.9, where 1 is the maximum; inconclusive means response in the unintended direction; inactive means score below 0.9.
Parameter call: string, one of active, inactive

For "Cc1c([N+](=O)[O-])cc2c(c1[N+](=O)[O-])C(C)(C)CC2(C)C" , what call appears in the results of this test?
active

For "c1cc2c3c(cccc3c1)CC2" , what call appears in the results of this test?
inactive

For "CCOP(=O)(O)C(N)=O" , what call appears in the results of this test?
inactive

For "N#Cc1ccc(O)cc1" , what call appears in the results of this test?
inactive

For CCC1(c2ccccc2)C(=O)N=C(O)NC1=O (stereo not given) , what call appears in the results of this test?
inactive

For "O=P(Oc1ccccc1)(Oc1ccccc1)Oc1ccccc1" , what call appears in the results of this test?
inactive

For "ClC(Cl)c1ccccc1" , what call appears in the results of this test?
inactive

For "N#Cc1c(-c2ccc(Cl)cc2)[nH]c(C(F)(F)F)c1Br" , what call appears in the results of this test?
inactive

For "CCNc1nc(Cl)nc(NC(C)(C)C)n1" , what call appears in the results of this test?
active

For O=P(OCC(Br)CBr)(OCC(Br)CBr)OCC(Br)CBr (stereo not given) , what call appears in the results of this test?
inactive

For "CNC(=O)Oc1ccc(N(C)C)c(C)c1" , what call appears in the results of this test?
inactive

For "O=[N+]([O-])c1ccc(Cl)c(Cl)c1" , what call appears in the results of this test?
inactive

For "CC(C)(C)c1ccc(O)cc1" , what call appears in the results of this test?
active

For CCOP(=S)(Oc1ccc([N+](=O)[O-])cc1)c1ccccc1 (stereo not given) , what call appears in the results of this test?
active

For CC(O)C(F)(F)C(F)(F)F (stereo not given) , what call appears in the results of this test?
inactive

For "CCCCN(CCCC)SN(C)C(=O)Oc1cccc2c1OC(C)(C)C2" , what call appears in the results of this test?
active

For "CCOP(=S)(OCC)SCS(=O)(=O)CC" , what call appears in the results of this test?
inactive

For "Cc1ccc2c(c1N)C(=O)c1ccccc1C2=O" , what call appears in the results of this test?
inactive

For ClC1=C(Cl)C2(Cl)C3C(Cl)C(Cl)CC3C1(Cl)C2(Cl)Cl (stereo not given) , what call appears in the results of this test?
active

For "N#Cc1cc([N+](=O)[O-])ccc1N" , what call appears in the results of this test?
inactive

For "Nc1ccc([N+](=O)[O-])cc1Cl" , what call appears in the results of this test?
inactive

For "CSC(C)(C)C=NO" , what call appears in the results of this test?
inactive

For "OCC(F)(F)OC(F)(F)C(F)(F)OC(F)(F)CO" , what call appears in the results of this test?
inactive

For "Nc1ccc(Sc2ccc(N)cc2)cc1" , what call appears in the results of this test?
inactive

For "CCN(CC)c1ccccc1" , what call appears in the results of this test?
inactive

For "N#C/C=C/c1ccccc1" , what call appears in the results of this test?
inactive

For "CC(C)(C)c1ccccc1OP(=O)(Oc1ccccc1)Oc1ccccc1" , what call appears in the results of this test?
inactive

For "CCOP(=S)(OCC)SCSCC" , what call appears in the results of this test?
active

For "CO/N=C(/C(=O)OC)c1ccccc1COc1ccccc1C" , what call appears in the results of this test?
inactive

For "Cc1ccc(N)cc1N" , what call appears in the results of this test?
inactive

For "C=CC(=O)OCC(CC)(COC(=O)C=C)COC(=O)C=C" , what call appears in the results of this test?
inactive

For "CCC(C)(C)c1ccc(O)cc1" , what call appears in the results of this test?
active

For "Nc1cc2c3c(c1)C(c1ccccc1)=N[C@@H](NC(=O)c1cccnc1)C(=O)N3CC2" , what call appears in the results of this test?
inactive

For "CCCCN(CCCC)N=O" , what call appears in the results of this test?
inactive

For "COP(N)(=S)OC" , what call appears in the results of this test?
inactive

For "Cc1ccc(O)cc1C" , what call appears in the results of this test?
inactive

For "C/C(=N\NC(=O)Nc1cc(F)cc(F)c1)c1ncccc1C(=O)O" , what call appears in the results of this test?
inactive

For "c1nc[nH]n1" , what call appears in the results of this test?
inactive

For "O=[N+]([O-])c1cc(Cl)ccc1Cl" , what call appears in the results of this test?
inactive

For "ClC(Cl)=C(c1ccc(Cl)cc1)c1ccccc1Cl" , what call appears in the results of this test?
active
